Examples of molecules with documented TGI follow.
System: NCI-H226 lung
Test: NCI tumour cell line growth inhibition, 48 h
Where a SMILES comes first, the peptide text is derived from it. [ ]: non-standard residue; d: D form. The star is where a group is joined. ξ: configuration not given here. ξF = NC(Cc1ccccc1)C(=O)O; Cbz = O=C(OCc1ccccc1)*
QUANTITY MEASURED: TGI

Cc1ccc(S(=O)(=O)NCCCCC(N)C(=O)O)cc1 (centres undefined) ... > 100 µM
COc1cc2nc(Cl)nc(NS(=O)(=O)c3cc4ccccc4s3)c2cc1OC ... > 100 µM
O=C1CC(O)c2cscc21 (centres undefined) ... > 100 µM
COc1ccc(/C=C2\C(=O)N(NC(C)=O)c3ccccc32)cc1 ... > 100 µM
[O]=[V]([OH])([OH])[OH] ... > 100 µM
CCOC(=O)C1=C(NC)OCC1=O ... > 100 µM
CCOC(=O)C1(C)CCC(C(C(=O)O)C(=O)O)CC1=O (centres undefined) ... > 100 µM
CC(=O)c1ccc(N=NN2CCCC2)cc1 ... > 100 µM
NC(N)=NCCCC(NCc1c2ccccc2nc2ccccc12)C(=O)O (centres undefined) ... > 100 µM
Cn1c(=O)c2nc3sc4c(n3c2n(C)c1=O)C(=O)c1ccccc1C4=O ... > 87.2 µM
COc1ccc(-c2[nH]c3ccc(OC)cc3c2C=C(C#N)C#N)cc1 ... > 100 µM
NC1=NC2(COC(c3ccccc3)(c3ccccc3)c3ccccc3)OC(COC(c3ccccc3)(c3ccccc3)c3ccccc3)C(O)C2O1 (centres undefined) ... > 100 µM
COC(=O)/C=C(\C(=O)OC)c1cc(C)c2cc(C(C)C)ccc(C)c1-2 ... > 100 µM
COC(=O)[C@@H]1[C@@H]2NC(=S)N[C@@]1(C)Oc1ccccc12 ... > 100 µM
CCOC(=O)CNC(=O)C(Cc1ccccc1)NC(=O)OCc1ccccc1 (centres undefined) (Cbz-[ξF]-Gly-OEt) ... > 100 µM
CCOc1cnc(C(O)(c2ccccc2)c2ccccc2)o1 ... > 100 µM
Cc1cc(O)c(/C=N/C(N)=S)c(=O)o1 ... > 100 µM
CC(N)(CC(O)(C(F)(F)Cl)C(F)(F)Cl)C(=O)O (centres undefined) ... > 10 µM
S=C1Cc2c(-c3ccccc3)cc(-c3cccc(Cl)c3)nc2-c2ccccc2N1 ... 19.4 µM
COC(=O)[C@@H]1CO[C@H](C(C)(C)C)N1C(=O)N1C=CC(=O)C[C@H]1C ... > 100 µM
COc1cc(/C=C2\NC(=O)C(Cc3cc(OC)c(OC)c(C)c3OC)N(C(C)=O)C2=O)c(OC)c(C)c1OC (centres undefined) ... > 100 µM
CC(=O)c1ccc(Nc2c3c(nc4ccccc24)CCCC3)cc1 ... > 100 µM
C=C(C#N)C(=O)OCC(CC)CC.C=C(C#N)C(=O)OCC(CC)CC.CS(C)=O.CS(C)=O.Nc1c(N=Nc2ccc(-c3ccc(N=Nc4cc(S(=O)(=O)[O-])c5ccccc5c4N)cc3)cc2)cc(S(=O)(=O)[O-])c2ccccc12.[Pt+2] ... > 74.1 µM
C=C(CN1CCc2[nH]c3ccc(F)cc3c2C1)c1ccc(C(=O)Nc2ccccc2N)cc1 ... 7.32 µM
C[C@@H](CC(=O)OCc1ccccc1)OC1OC(COC(=O)C(C)(C)C)C(OC(=O)C(C)(C)C)C(OC(=O)C(C)(C)C)C1OC(=O)C(C)(C)C (some centres undefined) ... > 100 µM
CC(=O)Nc1ccc(C2CC(c3ccc([N+](=O)[O-])cc3)=Nc3ccccc3S2=O)cc1 (centres undefined) ... 64.5 µM
CCN(CC)CCNc1ccc2ncn3c4ccc(O)cc4c(=O)c1c23 ... 1.33 µM
Fc1ccc(NC(c2ccc(F)cc2)C2CCN(CCCCc3ccccc3)CC2)cc1 (centres undefined) ... 3.6 µM
COc1ccc2nc(NC(=O)C(=O)CC(=O)c3ccc([N+](=O)[O-])cc3)sc2c1 ... > 100 µM
